Biological target: T1, IL10Rα/IL2Rγ receptor (human) (UniProt Q13651)
T1 sequence (looked up) 1: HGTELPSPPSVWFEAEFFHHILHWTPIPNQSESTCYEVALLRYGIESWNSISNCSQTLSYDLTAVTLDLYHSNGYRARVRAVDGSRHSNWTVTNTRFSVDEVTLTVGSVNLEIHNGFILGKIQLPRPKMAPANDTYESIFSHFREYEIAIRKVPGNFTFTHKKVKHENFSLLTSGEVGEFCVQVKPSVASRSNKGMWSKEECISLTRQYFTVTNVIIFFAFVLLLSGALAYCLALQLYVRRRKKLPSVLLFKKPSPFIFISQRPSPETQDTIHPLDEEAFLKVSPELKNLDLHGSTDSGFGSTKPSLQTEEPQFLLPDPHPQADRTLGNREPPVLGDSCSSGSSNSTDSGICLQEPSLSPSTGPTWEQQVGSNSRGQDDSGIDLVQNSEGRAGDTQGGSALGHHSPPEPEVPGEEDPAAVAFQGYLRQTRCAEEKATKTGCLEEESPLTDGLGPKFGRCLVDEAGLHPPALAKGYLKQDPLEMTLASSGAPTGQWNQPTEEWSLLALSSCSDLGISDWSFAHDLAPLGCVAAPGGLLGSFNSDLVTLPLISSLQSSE
T1 sequence (looked up) 2: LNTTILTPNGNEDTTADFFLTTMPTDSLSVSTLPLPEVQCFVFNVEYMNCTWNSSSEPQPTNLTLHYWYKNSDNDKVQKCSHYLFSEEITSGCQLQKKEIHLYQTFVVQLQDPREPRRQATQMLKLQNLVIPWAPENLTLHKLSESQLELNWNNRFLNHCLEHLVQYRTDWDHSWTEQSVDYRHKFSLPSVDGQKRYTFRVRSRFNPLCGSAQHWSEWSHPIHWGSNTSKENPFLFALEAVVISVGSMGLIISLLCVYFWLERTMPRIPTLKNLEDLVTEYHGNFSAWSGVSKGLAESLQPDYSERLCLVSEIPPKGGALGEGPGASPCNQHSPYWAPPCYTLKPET
Assay: cell-based or functional assay

{"binder": "hIL10Ra_VHH14 - hIL2Rg_VHH19, No linker, tag his (bispecific antibody, not shown: small tags and cut ends) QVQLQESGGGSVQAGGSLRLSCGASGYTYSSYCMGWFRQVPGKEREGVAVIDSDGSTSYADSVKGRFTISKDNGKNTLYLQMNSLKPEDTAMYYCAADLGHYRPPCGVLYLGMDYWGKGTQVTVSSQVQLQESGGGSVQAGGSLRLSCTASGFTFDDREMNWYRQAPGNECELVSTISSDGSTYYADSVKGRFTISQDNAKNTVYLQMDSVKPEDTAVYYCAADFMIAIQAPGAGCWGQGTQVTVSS", "IL-9 secretion, CD8 T cells, at 100 µM": "1670 pg/mL"}
